Target: T1, soluble guanylyl cyclase alpha 1 (sGCα1) (UniProt Q02108 1-690)
T1 sequence (looked up): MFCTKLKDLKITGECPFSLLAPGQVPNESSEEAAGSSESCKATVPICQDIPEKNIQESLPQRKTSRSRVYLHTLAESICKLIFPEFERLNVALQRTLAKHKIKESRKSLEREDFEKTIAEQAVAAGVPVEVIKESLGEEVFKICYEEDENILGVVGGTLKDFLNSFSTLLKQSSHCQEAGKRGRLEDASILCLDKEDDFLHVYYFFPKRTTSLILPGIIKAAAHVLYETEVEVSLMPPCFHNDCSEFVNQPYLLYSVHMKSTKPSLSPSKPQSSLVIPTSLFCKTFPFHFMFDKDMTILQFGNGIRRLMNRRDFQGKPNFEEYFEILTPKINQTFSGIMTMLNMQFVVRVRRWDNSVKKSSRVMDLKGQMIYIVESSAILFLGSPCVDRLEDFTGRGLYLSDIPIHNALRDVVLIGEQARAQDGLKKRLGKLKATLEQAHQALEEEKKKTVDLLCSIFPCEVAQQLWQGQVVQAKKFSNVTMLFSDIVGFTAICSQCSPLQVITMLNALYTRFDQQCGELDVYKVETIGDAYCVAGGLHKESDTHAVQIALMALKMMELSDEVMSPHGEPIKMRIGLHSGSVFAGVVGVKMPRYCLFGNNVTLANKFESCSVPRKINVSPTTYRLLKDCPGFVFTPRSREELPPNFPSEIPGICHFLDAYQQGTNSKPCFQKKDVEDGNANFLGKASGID
Test: cell-based or functional assay
Ends that are not written are not given here.
Assay Endpoint: IC50 (µM), cytotoxicity, Day 3, LNCaP cell culture
Quick note: give the figure in µM, leave out the unit.

In: Item TFCRRRRRRRR [Peptide TC3-8R] has what recorded IC50 (µM), cytotoxicity, Day 3, LNCaP cell culture?
Out: 72

In: Item FCKARRRRRRRR [Peptide FA4-8R] has what recorded IC50 (µM), cytotoxicity, Day 3, LNCaP cell culture?
Out: 43

In: Item TFCKAFPRRRRRRRR-NH2 [Peptide TP7-8R] has what recorded IC50 (µM), cytotoxicity, Day 3, LNCaP cell culture?
Out: 16

In: Item FCKAARRRRRRRR-NH2 [Peptide FF5-F5A-8R] has what recorded IC50 (µM), cytotoxicity, Day 3, LNCaP cell culture?
Out: 160
